Catalogue of abundance fitness readings, one per entry.
B1: Ventral anterior homeobox 1, residues 102 to 157; numbered along this chain, Q5SQQ9 (parent)
chain: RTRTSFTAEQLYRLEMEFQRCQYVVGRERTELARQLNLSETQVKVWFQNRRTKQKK

- Variants of: B1
- assay.procedure: abundance fitness (aPCA) (normalised: wild type 0, dead -1); higher = more abundant; growth selection in yeast, the domain comes from the species named
- experimental.setup: Homo sapiens

Prompt line: Write down abundance fitness measured for item `E40V`
Response line: -0.315

Prompt line: Write down abundance fitness measured for item `R27E`
Response line: 0.167

Prompt line: Write down abundance fitness measured for item `K53A`
Response line: 0.044

Prompt line: Write down abundance fitness measured for item `F47I`
Response line: -0.663

Prompt line: Write down abundance fitness measured for item `R20L`
Response line: -0.223
